- assay.protocol: KB-8-5-11 P-gp reporter qHTS against the NCATS DSHEA and TCM libraries (AID 1919977)
- test.settings: KB-8-5-11 cells; series mostly up to 26.1 µM
Inconclusive results are not listed. Calls of active or inactive are those of the source. Calls follow the shape of the dose curve; as a rule, active = well fitted curve in the direction sought with a large enough effect; inconclusive = small, poorly fitted or top-dose-only effect, or another doubt; inactive = no such curve, though single readings can be large or run the other way.
measured.parameter: activity change, negative = inhibition

>>> print(df.to_string())
                                   compound  result_value
0  O=c1cc(-c2ccc(O)cc2)oc2cc(O[C@H]3OC(CO)C(O)C(O)C3O)cc(O)c12 (stereo partly drawn)      inactive
1  CC1(C)CC[C@]2(C(=O)O)CC[C@]3(C)C(=CCC4[C@@]5(C)CC[C@@H](O)C(C)(C)C5CC[C@]43C)C2C1 (stereo partly drawn)      inactive
2  C=C1CC[C@H](O)C/C1=C\C=C1/CCC[C@]2(C)[C@@H]([C@H](C)CCCC(C)C)CC[C@@H]12      inactive

Values were extracted from PubChem BioAssay (NCATS).
